Let's look at some compounds and their measured MIC.
System: Staphylococcus aureus
Protocol Details: Antibacterial activity against Staphylococcus aureus ATCC 29213 by two fold serial microbroth dilution method
Format: functional
Write the value in µg/mL as a bare number.

Solved entries (count: 3):
Test Smiles	MIC, µg/mL
CCn1cc(C(=O)O)c(=O)c2cc(F)c(N3CCNCC3)cc21	2
CCCc1nccn1-c1ccnc(NS(=O)(=O)c2ccc(N)cc2)n1	8
CC(C)c1nccn1-c1ccnc(NS(=O)(=O)c2ccc(N)cc2)n1	32

Reported MIC, compound `CCc1nccn1-c1ccnc(NS(=O)(=O)c2ccc(N)cc2)n1` : ____ 64

====

Let's look at some molecules and their measured MIC.
System: Enterococcus faecalis
Protocol Details: Antibacterial activity against Enterococcus faecalis by two fold serial microbroth dilution method
Format: functional
Note to self: number, then unit, no commentary.

Solved entries (count: 3):
Test Smiles	Test Result
Nc1ccc(S(=O)(=O)Nc2nccc(-n3ccc4ccccc43)n2)cc1	1 µg/mL
Nc1ccc(S(=O)(=O)Nc2nccc(-n3cncn3)n2)cc1	256 µg/mL
Cc1cc2ncn(-c3ccnc(NS(=O)(=O)c4ccc(N)cc4)n3)c2cc1C	256 µg/mL

Reported MIC, molecule `CCCc1nccn1-c1ccnc(NS(=O)(=O)c2ccc(N)cc2)n1` : ____ 64 µg/mL

====

Tested on: Escherichia coli
Protocol Details: Antibacterial activity against Escherichia coli by two fold serial microbroth dilution method
Type: functional
Let's look at some compounds and their measured log10(MIC).
Give log10 of MIC, with MIC taken in µg/mL.

Compound	Measured Target	log10(MIC)
Cc1nccn1-c1ccnc(NS(=O)(=O)c2ccc(N)cc2)n1	Escherichia coli	2.11
Nc1ccc(S(=O)(=O)Nc2nccc(-n3cncn3)n2)cc1	Escherichia coli	2.11
Nc1ccc(S(=O)(=O)Nc2nccc(-n3cnc4ccccc43)n2)cc1	Escherichia coli	2.11
Cc1ccc2c(ccn2-c2ccnc(NS(=O)(=O)c3ccc(N)cc3)n2)c1	Escherichia coli	0.90
Nc1ccc(S(=O)(=O)Nc2nccc(-n3ccnc3)n2)cc1	Escherichia coli	2.41

Query for Escherichia coli: what log10(MIC) does the record show for `Nc1ccc(S(=O)(=O)Nc2nccc(-n3ccc4cc([N+](=O)[O-])ccc43)n2)cc1` ? 0.90

Query for Escherichia coli: what log10(MIC) does the record show for `Nc1ccc(S(=O)(=O)Nc2nccc(-n3ccc4cc(Br)ccc43)n2)cc1` ? 0.60

Query for Escherichia coli: what log10(MIC) does the record show for `CCc1nccn1-c1ccnc(NS(=O)(=O)c2ccc(N)cc2)n1` ? 2.11

Query for Escherichia coli: what log10(MIC) does the record show for CCn1cc(C(=O)O)c(=O)c2cc(F)c(N3CCNCC3)cc21 [NORFLOXACIN] ? 1.20

Query for Escherichia coli: what log10(MIC) does the record show for `Nc1ccc(S(=O)(=O)Nc2nccc(-n3ccc4ccccc43)n2)cc1` ? 1.51

====

Let's look at some molecules and their measured MIC.
System: Staphylococcus aureus
Protocol Details: Antibacterial activity against Staphylococcus aureus by two fold serial microbroth dilution method
Type: functional

Molecule	MIC
CCCc1nccn1-c1ccnc(NS(=O)(=O)c2ccc(N)cc2)n1	8 µg/mL

Reported MIC, molecule `Nc1ccc(S(=O)(=O)Nc2nccc(-n3cncn3)n2)cc1` : ____ 512 µg/mL

Reported MIC, molecule `Cc1cc2ncn(-c3ccnc(NS(=O)(=O)c4ccc(N)cc4)n3)c2cc1C` : ____ 256 µg/mL

Reported MIC, molecule `Cc1nccn1-c1ccnc(NS(=O)(=O)c2ccc(N)cc2)n1` : ____ 256 µg/mL

Reported MIC, molecule `Nc1ccc(S(=O)(=O)Nc2nccc(-n3ccc4ccccc43)n2)cc1` : ____ 32 µg/mL

Reported MIC, molecule `CC(C)c1nccn1-c1ccnc(NS(=O)(=O)c2ccc(N)cc2)n1` : ____ 256 µg/mL

Reported MIC, molecule `Cc1ncc([N+](=O)[O-])n1-c1ccnc(NS(=O)(=O)c2ccc(N)cc2)n1` : ____ 128 µg/mL

Reported MIC, molecule `Nc1ccc(S(=O)(=O)Nc2nccc(-n3ccc4cc(Br)ccc43)n2)cc1` : ____ 64 µg/mL

Reported MIC, molecule `Nc1ccc(S(=O)(=O)Nc2nccc(-n3ccnc3)n2)cc1` : ____ 128 µg/mL

Reported MIC, molecule `Nc1ccc(S(=O)(=O)Nc2nccc(-n3cnc4ccccc43)n2)cc1` : ____ 256 µg/mL

Reported MIC, molecule `Cc1ccc2c(ccn2-c2ccnc(NS(=O)(=O)c3ccc(N)cc3)n2)c1` : ____ 16 µg/mL

Reported MIC, molecule CCn1cc(C(=O)O)c(=O)c2cc(F)c(N3CCNCC3)cc21 [NORFLOXACIN] : ____ 0.5 µg/mL

Reported MIC, molecule `Nc1ccc(S(=O)(=O)Nc2nccc(-n3ccc4cc([N+](=O)[O-])ccc43)n2)cc1` : ____ 32 µg/mL

Reported MIC, molecule `CCc1nccn1-c1ccnc(NS(=O)(=O)c2ccc(N)cc2)n1` : ____ 128 µg/mL

====

Let's look at some compounds and their measured MIC.
Test system: Escherichia coli
Protocol Details: Antibacterial activity against Escherichia coli by two fold serial microbroth dilution method
Assay type: functional
Write the value in µg/mL as a bare number.

Solved entries (count: 3):
Test Smiles	Measured Target	Property Label	Test Result
Cc1ncc([N+](=O)[O-])n1-c1ccnc(NS(=O)(=O)c2ccc(N)cc2)n1	Escherichia coli	MIC	128
Cc1cc2ncn(-c3ccnc(NS(=O)(=O)c4ccc(N)cc4)n3)c2cc1C	Escherichia coli	MIC	256
CC(C)c1nccn1-c1ccnc(NS(=O)(=O)c2ccc(N)cc2)n1	Escherichia coli	MIC	64

Reported MIC, compound `CCCc1nccn1-c1ccnc(NS(=O)(=O)c2ccc(N)cc2)n1` : ____ 16

====

Test system: Escherichia coli
Protocol Details: Antibacterial activity against Escherichia coli ATCC 25922 by two fold serial microbroth dilution method
Type: functional
Property Label: MIC

Solved entries (count: 3):
Test Smiles	MIC
Cc1ncc([N+](=O)[O-])n1-c1ccnc(NS(=O)(=O)c2ccc(N)cc2)n1	256 µg/mL
CCn1cc(C(=O)O)c(=O)c2cc(F)c(N3CCNCC3)cc21	8 µg/mL
Nc1ccc(S(=O)(=O)Nc2nccc(-n3ccnc3)n2)cc1	256 µg/mL

Reported MIC, molecule `Nc1ccc(S(=O)(=O)Nc2nccc(-n3cnc4ccccc43)n2)cc1` : ____ 256 µg/mL

====

Test system: Staphylococcus aureus
Protocol Details: Antibacterial activity against Staphylococcus aureus ATCC 25923 by two fold serial microbroth dilution method
Assay type: functional
Let's look at some molecules and their measured MIC.
Write the value in µg/mL as a bare number.

Solved entries (count: 5):
Test Smiles	Unit Spec	MIC
Cc1cc2ncn(-c3ccnc(NS(=O)(=O)c4ccc(N)cc4)n3)c2cc1C	µg/mL	256
CCc1nccn1-c1ccnc(NS(=O)(=O)c2ccc(N)cc2)n1	µg/mL	128
Nc1ccc(S(=O)(=O)Nc2nccc(-n3ccc4cc([N+](=O)[O-])ccc43)n2)cc1	µg/mL	4
Cc1nccn1-c1ccnc(NS(=O)(=O)c2ccc(N)cc2)n1	µg/mL	256
Cc1ccc2c(ccn2-c2ccnc(NS(=O)(=O)c3ccc(N)cc3)n2)c1	µg/mL	4

Reported MIC, molecule `Nc1ccc(S(=O)(=O)Nc2nccc(-n3cncn3)n2)cc1` : ____ 256

Reported MIC, molecule `Nc1ccc(S(=O)(=O)Nc2nccc(-n3ccc4ccccc43)n2)cc1` : ____ 4

Reported MIC, molecule `Nc1ccc(S(=O)(=O)Nc2nccc(-n3ccnc3)n2)cc1` : ____ 256

====

Let's look at some compounds and their measured MIC.
System: Klebsiella pneumoniae
Protocol Details: Antibacterial activity against Klebsiella pneumoniae by two fold serial microbroth dilution method
Format: functional
Write the value in µg/mL as a bare number.

Solved entries (count: 2):
Compound	Measured Target	MIC, µg/mL
Nc1ccc(S(=O)(=O)Nc2nccc(-n3ccnc3)n2)cc1	Klebsiella pneumoniae	256
Cc1cc2ncn(-c3ccnc(NS(=O)(=O)c4ccc(N)cc4)n3)c2cc1C	Klebsiella pneumoniae	256

Reported MIC, compound CCn1cc(C(=O)O)c(=O)c2cc(F)c(N3CCNCC3)cc21 [NORFLOXACIN] : ____ 4

Reported MIC, compound `CC(C)c1nccn1-c1ccnc(NS(=O)(=O)c2ccc(N)cc2)n1` : ____ 256

====

System: Klebsiella pneumoniae
Protocol Details: Antibacterial activity against Klebsiella pneumoniae by two fold serial microbroth dilution method
Format: functional
Property Label: MIC (µg/mL)
Write the value in µg/mL as a bare number.

Solved entries (count: 3):
Test Smiles	MIC (µg/mL)
Nc1ccc(S(=O)(=O)Nc2nccc(-n3ccc4cc(Br)ccc43)n2)cc1	32
Cc1ccc2c(ccn2-c2ccnc(NS(=O)(=O)c3ccc(N)cc3)n2)c1	8
Nc1ccc(S(=O)(=O)Nc2nccc(-n3cncn3)n2)cc1	32

Reported MIC, compound `Nc1ccc(S(=O)(=O)Nc2nccc(-n3ccc4cc([N+](=O)[O-])ccc43)n2)cc1` : ____ 32

Origin of values: ChEMBL document CHEMBL4627266
